# subjectOfTest: T1, CRD1-2
# T1 construct: also called fragmented human CD137-Fc fusion protein CRD1-2
# measurementNotes: ELISA, coated CD137-Fc protein 2 µg/mL, antibody 10 or 5 µg/mL; absorbance 620 nm divided by that of the uncoated well
measuredParameter: Ratio with respect to Non-Coating
Form rule: numeric answer, no unit written next to it.

- binder: "R3 (antibody, V domains shown, Naive library clone; Fab on phage in the phage ELISA) VH: EVQLVQSGAEVKKPGASVKVSCKASGYTFTSYYTHWVRQAPGQGLEWMGIINPSGGSTSYAQKFQGRVTMTRDTSTSTVYMELSSLRSEDTAVYYCARGAPEYSSSSDYWGQGTMVTVSS VL: QSALTQPASVSGSPGQSITISCTGTSSDVGGYNFVSWYQQHPGKAPKLMIYDVSKRPSGVSTRFSGSKSGNTASLTISGLQAEDEADYYCNSYTTSSTRWMFGGGTKVTVL"
  Ratio with respect to Non-Coating: 28.5

The measured Ratio with respect to Non-Coating associated with B (antibody, human IgG1, kappa, V domains shown, also called Control B) VH: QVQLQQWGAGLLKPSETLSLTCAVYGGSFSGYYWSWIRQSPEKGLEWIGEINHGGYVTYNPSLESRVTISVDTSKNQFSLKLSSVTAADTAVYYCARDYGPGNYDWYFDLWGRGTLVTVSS VL: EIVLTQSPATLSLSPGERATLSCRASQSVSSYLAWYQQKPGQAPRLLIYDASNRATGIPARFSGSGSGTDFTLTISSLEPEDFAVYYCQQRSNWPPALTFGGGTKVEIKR reads 52.7

The measured Ratio with respect to Non-Coating associated with R4 (antibody, V domains shown, Naive library clone; Fab on phage in the phage ELISA) VH: EVQLVQSGAEVKKPGASVKVSCKASGYTFSGYYMHWVRQAPGQGLEWMGWINPNSGDTNYAQNFQGRVTMTRDTSISTAYMELSRLRSDDTAVYYCARDGTGYSSSPDYWGQGTPVTVSS VL: QSALTQPASVSGSPGQSITISCTGTSSDVGGYNYVSWYQQHPGKAPKLMIYDVSNRPSGVSNRFSGSKSGNTASLTISGLQAEDEADYYCSSYTSSSTRWVFGGGTKLTVL reads 29.3
